target of assay: PI3K delta (Homo sapiens, UniProt O00329)
Construct: for the full-length p110-d subunit are generated and fused by overlapping PCR; His tag (C); made in house; host or cells: baculovirus BV1060; Tn5 (Trichoplusia ni) or TiniPro insect cells
Sequence (O00329 with tags, fused parts or gaps limits assumed): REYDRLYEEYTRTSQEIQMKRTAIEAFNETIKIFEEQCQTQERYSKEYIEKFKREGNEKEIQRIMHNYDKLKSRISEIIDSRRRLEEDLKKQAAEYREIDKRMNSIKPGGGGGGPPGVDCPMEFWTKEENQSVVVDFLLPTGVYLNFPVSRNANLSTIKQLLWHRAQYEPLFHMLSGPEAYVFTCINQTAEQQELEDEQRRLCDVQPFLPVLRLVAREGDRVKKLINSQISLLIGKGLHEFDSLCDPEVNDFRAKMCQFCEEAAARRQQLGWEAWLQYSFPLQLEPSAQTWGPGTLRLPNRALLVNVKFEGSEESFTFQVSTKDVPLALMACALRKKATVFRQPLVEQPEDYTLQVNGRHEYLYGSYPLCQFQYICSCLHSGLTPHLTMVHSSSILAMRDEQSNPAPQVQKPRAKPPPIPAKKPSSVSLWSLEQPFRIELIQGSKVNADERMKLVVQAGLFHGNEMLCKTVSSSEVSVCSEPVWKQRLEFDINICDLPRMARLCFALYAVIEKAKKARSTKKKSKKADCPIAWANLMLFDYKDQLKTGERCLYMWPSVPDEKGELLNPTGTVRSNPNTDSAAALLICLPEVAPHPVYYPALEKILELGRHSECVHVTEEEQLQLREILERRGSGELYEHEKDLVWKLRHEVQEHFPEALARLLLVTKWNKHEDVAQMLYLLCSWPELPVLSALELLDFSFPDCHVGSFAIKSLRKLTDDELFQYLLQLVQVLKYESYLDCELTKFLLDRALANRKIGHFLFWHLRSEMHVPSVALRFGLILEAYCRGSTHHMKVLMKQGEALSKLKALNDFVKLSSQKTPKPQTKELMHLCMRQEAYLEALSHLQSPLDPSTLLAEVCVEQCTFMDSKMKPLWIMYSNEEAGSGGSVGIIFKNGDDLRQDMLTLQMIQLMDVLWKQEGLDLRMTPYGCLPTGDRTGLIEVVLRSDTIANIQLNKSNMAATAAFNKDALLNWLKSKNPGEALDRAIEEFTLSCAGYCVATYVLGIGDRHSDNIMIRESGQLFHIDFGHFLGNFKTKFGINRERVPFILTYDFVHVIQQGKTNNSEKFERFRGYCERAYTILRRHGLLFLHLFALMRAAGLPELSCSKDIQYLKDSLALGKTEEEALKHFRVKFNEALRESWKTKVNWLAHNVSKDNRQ
method notes: PI3K delta kinase assay (Kinase-Glo luminescence)
Assay type: biochemical
condition set: read-out: PI3Kdelta/IC50
Criterion: IC50 strictly under 20 nM. Met: satisfied. Not met: not satisfied.

Some solved cases for reference:
> print(dat)
                               given.smiles    class.label
1  CNc1ncc(-c2ccc3ncc4c(c3c2)n(-c2cccnc2C)c(=O)n4C)cn1  not satisfied
2  CNC(=O)c1ccc(-c2ccc3ncc4c(c3c2)n(-c2cccnc2C)c(=O)n4C)cc1  not satisfied
3  Cc1ncccc1-n1c(=O)n(C)c2cnc3ccc(-c4ccc(N)nc4)cc3c21  not satisfied
4  Cn1c(=O)n(-c2cccnc2)c2c3cc(-c4ccc(CO)nc4)ccc3ncc21  not satisfied
5  Cn1c(=O)n(-c2cccnc2F)c2c3cc(-c4cnc(N)c(C(F)(F)F)c4)ccc3ncc21      satisfied

Exercise: Does the reported IC50 of the following compound sit strictly below 20 nM? COc1ncccc1-n1c(=O)n(C)c2cnc3ccc(-c4cnc5[nH]ccc5c4)cc3c21
Key: satisfied

Exercise: Field: below-cutoff. Rule: recorded IC50 strictly less than 20 nM. Subject: CCOc1ccc(-c2ccc3ncc4c(c3c2)n(-c2cccnc2F)c(=O)n4C)cn1
Key: not satisfied

Exercise: Is 20 nM strictly greater than the compound's reported IC50? compound: COc1ccc(-c2ccc3ncc4c(c3c2)n(-c2cccnc2)c(=O)n4C)cc1OC
Key: not satisfied
